Source: ChEMBL document CHEMBL3045986

Test system: Pestalotiopsis sp.
Test Protocol: Antifungal activity against Pestalotiopsis sp. assessed as growth inhibition at 3 mg/ml at 25 degC by agar well diffusion bioassay
Assay type: functional
Test Conditions: read-out: GI
Mark Met for reported inhibition of growth at 3000 µg/mL of 20% or greater; mark Not met for anything smaller.

Worked examples follow.
Compound: CC(=O)O[C@@H]1C(C)(C)OC(=O)[C@@]12COc1ccc3c(=O)cc(-c4ccccc4)oc3c12 [ISOGLABRATEPHRIN]
Class Assignment: Not met

Compound: COC(=O)Nc1nc2ccccc2[nH]1 [CARBENDAZIM]
Class Assignment: Met

Compound: CC(=O)OC(C1COc2ccc3c(=O)cc(-c4ccccc4)oc3c21)C(C)(C)O (stereo not given) [TEPHROAPOLLIN-F]
Class Assignment: Met

Ask | Reported inhibition of growth at 3000 µg/mL reaches at least 20% for CC(=O)O[C@@H]1C(C)(C)OC(=O)[C@]12COc1ccc3c(=O)cc(-c4ccccc4)oc3c12 [(+)-GLABRATEPHRIN] ?
Reply | Met

Ask | Identify whether the reported inhibition of growth at 3000 µg/mL of the following compound is 20% or greater: COc1ccc2c(=O)cc(-c3ccccc3)oc2c1/C=C/C(C)(C)O [LANCEOLATIN-A]
Reply | Met

###

Tested on: Helminthosporium
Test Protocol: Antifungal activity against Helminthosporium sp. assessed as growth inhibition at 3 mg/ml at 25 degC by agar well diffusion bioassay
Assay type: functional
Test Conditions: read-out: GI
Observable: inhibition of growth at 3000 µg/mL

Take a look at these entries with their results.
Compound: CC(=O)OC(C1COc2ccc3c(=O)cc(-c4ccccc4)oc3c21)C(C)(C)O (stereo not given) [TEPHROAPOLLIN-F]
inhibition of growth at 3000 µg/mL: 36.3%
--
Compound: COc1ccc2c(=O)cc(-c3ccccc3)oc2c1/C=C/C(C)(C)O [LANCEOLATIN-A]
inhibition of growth at 3000 µg/mL: 10.7%

Ask | Entry COC(=O)Nc1nc2ccccc2[nH]1 [CARBENDAZIM] , system Helminthosporium: what inhibition of growth at 3000 µg/mL was measured?
Reply | 66.3%

Ask | State its inhibition of growth at 3000 µg/mL on Helminthosporium: CC(=O)O[C@@H]1C(C)(C)OC(=O)[C@]12COc1ccc3c(=O)cc(-c4ccccc4)oc3c12 [(+)-GLABRATEPHRIN]
Reply | 23.3%

Ask | Quick check: inhibition of growth at 3000 µg/mL on Helminthosporium, item CC(=O)O[C@@H]1C(C)(C)OC(=O)[C@@]12COc1ccc3c(=O)cc(-c4ccccc4)oc3c12 [ISOGLABRATEPHRIN] ?
Reply | 28.9%

###

Tested on: Pestalotiopsis sp.
Test Protocol: Antifungal activity against Pestalotiopsis sp. assessed as growth inhibition at 4 mg/ml at 25 degC by agar well diffusion bioassay
Assay type: functional
Test Conditions: read-out: GI
Observable: inhibition of growth at 4000 µg/mL (%)
Output spec: scalar in %, unitless text.

Some compounds with known inhibition of growth at 4000 µg/mL results, for comparison:
Compound: COC(=O)Nc1nc2ccccc2[nH]1
inhibition of growth at 4000 µg/mL [%]: 70.6
--
Compound: CC(=O)OC(C1COc2ccc3c(=O)cc(-c4ccccc4)oc3c21)C(C)(C)O (stereo not given)
inhibition of growth at 4000 µg/mL [%]: 51.7

Ask | Could you share what inhibition of growth at 4000 µg/mL was measured for CC(=O)O[C@@H]1C(C)(C)OC(=O)[C@]12COc1ccc3c(=O)cc(-c4ccccc4)oc3c12 [(+)-GLABRATEPHRIN] , tested on Pestalotiopsis sp.?
Reply | 31.9

Ask | Given the entry COc1ccc2c(=O)cc(-c3ccccc3)oc2c1/C=C/C(C)(C)O , what inhibition of growth at 4000 µg/mL was observed with Pestalotiopsis sp.?
Reply | 29.7

Ask | Notebook entry, Pestalotiopsis sp. assay: inhibition of growth at 4000 µg/mL of CC(=O)O[C@@H]1C(C)(C)OC(=O)[C@@]12COc1ccc3c(=O)cc(-c4ccccc4)oc3c12 = ?
Reply | 27.5
